# growth values compiled below
Test system: UACC-257 melanoma
Assay: NCI-60 one-dose screen, 48 h (100 = growth as untreated, 0 = no growth, -100 = all killed)
Conditions: 10 µM unless noted
Compounds without any hit were thinned out: in the full panel of roughly 83,000, 20% have a hit.
PROPERTY_LABEL: growth (%)

{"SMI": "O=C(CNc1nc(-c2cccc([N+](=O)[O-])c2)cs1)Nc1cccc([N+](=O)[O-])c1", "PROPERTY_LABEL": "growth", "ASSAY_RESULT": -13}
{"SMI": "Nc1ncc(-c2ccc3ncnc(Nc4cccc(Cl)c4F)c3c2)cn1", "PROPERTY_LABEL": "growth", "ASSAY_RESULT": 89.4}
{"SMI": "O=S(=O)(NCCNc1nccc(-n2cnc3ccccc32)n1)c1ccc(Br)cc1", "PROPERTY_LABEL": "growth", "ASSAY_RESULT": 109}
{"SMI": "C#C[C@]1(O)CC[C@H]2[C@@H]3CC=C4c5sc(-c6cccc(O)c6)nc5CC[C@]4(C)[C@H]3CC[C@@]21C", "PROPERTY_LABEL": "growth", "ASSAY_RESULT": -42.6}
